System: A498 renal
Test: NCI-60 one-dose screen, 48 h
Settings: 10 µM unless noted
This is part of a sample that, as a whole, favours compounds with a hit. Of some 83,000 tested, about 20% had one in any assay. Calls of active or inactive are those of the source. Rule for the calls: active = growth percent below 10; inactive = the rest.
Classes used: active, inactive

| molecule | classification |
| --- | --- |
| Cc1ccc(/C=C2\C(=O)N(C)c3ccc(S(=O)(=O)Nc4ccc(C(C)(C)C)cc4)cc32)s1 | inactive |
| Cn1cc(-c2csc(-c3ccccc3)n2)c2cccnc21 | active |
| CCOC(=O)C/C(C)=N\NC(=O)c1ccncc1 | inactive |
| Cc1ccc(C(=O)CSc2nc(-c3ccc(Br)cc3)c(C#N)c(=O)[nH]2)cc1 | inactive |
| COc1ccc(NC(=O)CSc2nc(C)c(C(C)=O)n2-c2ccc(Cl)cc2)cc1 | inactive |
| Cc1ccc(N(C(=O)CCc2c[nH]c3ccccc23)[C@H](C(=O)Nc2ccc(Cl)cc2)c2cccc([N+](=O)[O-])c2)cc1 | inactive |
| C=C1C(=O)O[C@H]2[C@H]1CC/C(CNC(=O)/C=C/c1ccc(Cl)cc1Cl)=C\CC[C@@]1(C)O[C@@H]21 | active |
| COc1ccc(C(=O)/C=C/c2c(C(F)(F)F)nc3sccn23)cc1OC | inactive |
| CC(=O)n1c(-c2ccc(Cl)cc2)nc2c(c1=O)C(c1ccc(Cl)cc1)c1sc3c(Cl)cccc3c1O2 (stereo unspecified) | active |
| OC(COc1ccccc1Cl)COc1ccccc1Cl | inactive |
| CCCCC1CCCCN1C(=O)OCC (stereo unspecified) | inactive |
| COc1ccc(-c2[nH]c(=S)n(C(CC3(C)NCC(=O)N3n3c(-c4ccccc4)cc(C)nc3=S)c3ccc(OC)cc3)c(=O)c2Br)cc1 (stereo unspecified) | active |
| COC(=O)[C@H](CSC)N(C)C(=O)[C@@H]1CSSC[C@@H](NC(=O)c2nc3ccccc3cc2O)C(=O)NCC(=O)N1C | inactive |
| Cc1ccc(Cl)cc1NC(=O)c1cc2ccccc2cc1O | active |
| C[n+]1cccc(CC(=O)NO)c1 | inactive |
| O=C(COc1ccc(/C=C2\Oc3ccccc3C2=O)cc1)Nc1nc2ccccc2s1 | inactive |
| Cc1ccc(/C=C/c2c(C(=O)/C=C/c3ccc(C(F)(F)F)cc3)c(C)nc3ccccc23)cc1 | active |
| c1csc(-c2c3ccc(=[N+]4CCCCC4)cc-3oc3cc(N4CCCCC4)ccc23)c1 | active |
| COC(=O)c1ccc(CSc2nnc(-c3c(C)nc4ccc(C)cn34)o2)cc1 | inactive |
| O=C(CSc1nccc(Nc2ccc(S(=O)(=O)Nc3nccs3)cc2)n1)c1ccc(F)cc1 | inactive |
| N#Cc1c(N)nn(C(=O)c2ccc(NC(=O)c3ccccn3)cc2)c1-c1ccc(Cl)cc1 | inactive |
| O=C1Nc2ccccc2/C1=C/c1cn(C(=O)c2ccc(Cl)cc2)c2ccccc12 | inactive |
| COc1cccc2c1C(=O)c1c(O)c3c(c(O)c1C2=O)CC(O)(/C(C)=N/NC(=O)CCCCC(=O)N/N=C(\C)C1(O)Cc2c(O)c4c(c(O)c2C(OC2CC(N)C(O)C(C)O2)C1)C(=O)c1c(OC)cccc1C4=O)CC3OC1CC(N)C(O)C(C)O1 (stereo unspecified) | active |
| NC(N)=NN=C(c1ccccc1)c1ccccc1 | inactive |
| CC1SC(c2ccc(OCc3ccccc3)cc2)N(NC(=O)C(O)(c2ccccc2)c2ccccc2)C1=O (stereo unspecified) | inactive |
| C=CCn1c(C)nc2cc(Nc3nc(Cl)nc4ccccc34)ccc21 | inactive |
| O=[N+]([O-])c1ccc(OCCO)cc1 | inactive |
| COc1ccc(Nc2nnc(SCc3ccccc3F)s2)cc1 | inactive |
| CCN(CC)CCCNc1ccc(Nc2ccc(OC)cc2)cc1 | inactive |
| CCN(CC)CCN1C(=O)c2c(c(C)c3c(oc4cc(O)ccc43)c2C)C1=O | inactive |
| Cc1nc2ccccc2n1CC1NC(=O)NC1=O (stereo unspecified) | inactive |
| O=[N+]([O-])c1ccc(-c2cc(-c3ccc(Nc4nc(Nc5ccc(Cl)cc5)nc(Nc5ccc(Cl)cc5)n4)cc3)no2)cc1 | inactive |
| CN1C(=O)N(C)C2C1NN=c1s/c(=C\c3ccccc3)c(=O)n12 (stereo unspecified) | active |
| CN(Cc1cnc2nc(N)nc(N)c2n1)c1ccc(C(=O)N[C@@H](CCc2nn[nH]n2)c2nn[nH]n2)cc1 | inactive |
| COc1ccccc1N1C(=O)/C(=C/C2=Cc3ccccc3OC2)SC1=S | inactive |
| CCOC(CN=Cc1cc(C)c2[nH]c3ccccc3c2c1C)OCC | inactive |

###

Tested on: A549/ATCC NSCLC
Assay: NCI-60 one-dose screen, 48 h (100 = growth as untreated, 0 = no growth, -100 = all killed)
Details: 10 µM unless noted
The panel holds about 83,000 compounds, 20% with a hit somewhere; the sample as a whole holds those more often.
Listed here: items and their measured growth.

| compound | growth [%] |
| --- | --- |
| COc1ccc2occ(C3=C(c4c[nH]c5ccccc45)C(=O)N(O)C3=O)c2c1 | 93.6 |
| CCc1ccccc1NC(=O)/C(C#N)=C/c1ccc(OC)cc1 | 94 |
| Cc1ccc(-n2nc3c(c(C#N)c2=O)CC(c2ccccc2Cl)C([N+](=O)[O-])=C3O)cc1 (centres undefined) | 95.4 |
| Cc1c(Cl)cc(-n2c(=O)c3ccccc3c3ccccc3c2=O)cc1Cl | 102 |

###

System: IGROV1 ovarian
Experiment: NCI-60 one-dose screen, 48 h
Conditions: 10 µM unless noted
The panel holds about 83,000 compounds, 20% with a hit somewhere; the sample as a whole holds those more often. The source made the active and inactive calls. How the source made its calls: active means growth percent below 10; inactive means the rest.
Possible outcomes: True for active, False for inactive

| smiles-representation | classification |
| --- | --- |
| N#Cc1c(N)nc(NCCO)nc1-c1ccc(F)cc1 | False |
| C=C(C)[C@@H]1CC[C@]2(C(=O)NC3CCCCC3)CC[C@]3(C)[C@H](CC[C@@H]4[C@@]5(C)CCC(=O)C(C)(C)[C@@H]5CC[C@]43C)[C@@H]12 | False |
| C=C1C(=O)O[C@H]2[C@H]1CC/C(COC(=O)C(=O)c1c[nH]c3ccccc13)=C\CC[C@@]1(C)O[C@@H]21 | True |
| COc1ccc(/C=N\NC(=O)c2cc(-c3ccc(Br)cc3)n(-c3ccc(S(N)(=O)=O)cc3)n2)cc1 | False |
| Cc1nn(-c2ccccc2)c(Oc2ccc(Cl)cc2)c1/C=N\N=c1/sc2ccccc2n1C | False |
| Cc1cc(C)c2c(-c3nnc(N)s3)cc(=O)oc2c1 | False |
| COc1ccc(C(=O)/C=C/c2c(C(F)(F)F)nc3sccn23)cc1OC | False |
| Cc1ccc(-c2cc(-c3cccnc3)[nH]c(=O)c2C#N)cc1 | False |

###

System: A498 renal
Test: NCI-60 one-dose screen, 48 h (100 = growth as untreated, 0 = no growth, -100 = all killed)
Conditions: 10 µM unless noted
This is part of a sample that, as a whole, favours compounds with a hit. Of some 83,000 tested, about 20% had one in any assay.
Labelling field: enter fulfilled if recorded growth is less than 60%. Enter not fulfilled if it equals or exceeds that cut-off.

| molecule | assayed-target | classification |
| --- | --- | --- |
| O=C(/C=C/c1ccc(Cl)nc1)c1ccc(Cl)cc1Cl | A498 renal | not fulfilled |
| CCN1C(=O)N(CC)C2Nn3c(s/c(=C4\C(=O)N(C)c5ccccc54)c3=O)=NC21 (stereo not given) | A498 renal | fulfilled |
| O=C(NCCNc1cc(-c2cn(-c3ccccc3)nc2-c2cccc(O)c2)ccn1)Nc1ccccc1 | A498 renal | not fulfilled |
| COc1cc(C2CC(=O)Nc3c2c(C)nn3-c2nc3ccccc3[nH]2)c(OC)c(OC)c1OC (stereo not given) | A498 renal | fulfilled |
| Cc1cccc(NC(=O)N/C(N)=N/c2nc(C)c(C)s2)c1 | A498 renal | fulfilled |
| COC(=O)[C@]12CC[C@@H](C)[C@H](C)[C@@H]1C1=CC[C@@H]3[C@@]4(C)C(C=O)=C[C@@](C)(COS(C)(=O)=O)[C@@H]4C(=O)C[C@@]3(C)[C@]1(C)CC2 | A498 renal | not fulfilled |
| O=C1Nc2ccc(F)cc2C12Nc1cc(Cl)ccc1S2 (stereo not given) | A498 renal | not fulfilled |
| CCCCCCCCCOc1c(OC)cc(C2CC(=O)Nc3c2c(C)nn3-c2nc3ccccc3[nH]2)cc1OC (stereo not given) | A498 renal | fulfilled |
| Cc1c(O)cc(-c2cnc(N/N=C\c3ccc(Cl)cc3)s2)c(O)c1C | A498 renal | not fulfilled |
| N#C/C(=C\c1ccc2c(c1)OCO2)n1nnc2cc(F)c(F)cc21 | A498 renal | fulfilled |
| COC(=O)[C@]12CC[C@@H](C)[C@H](C)[C@@H]1C1=CC[C@@H]3[C@@]4(C)C(C=O)=C[C@@](C)(COS(C)(=O)=O)C4[C@H](O)C[C@@]3(C)[C@]1(C)CC2 (stereo not given in full) | A498 renal | fulfilled |
| C[C@H](NC(=O)[C@@H]1CSSC[C@@H](NC(=O)c2nc3ccccc3cc2O)C(=O)NCC(=O)N1C)c1ccccc1 | A498 renal | not fulfilled |
| NS(=O)(=O)c1cnccc1Sc1ccncc1S(N)(=O)=O | A498 renal | not fulfilled |
| C=CCOC1=CC(=O)c2ccccc2C1=O | A498 renal | not fulfilled |
| CN1CCN(CC(=O)Nc2nc(-c3cccc(NS(=O)(=O)c4cccc5c(N(C)C)cccc45)c3)cs2)CC1 | A498 renal | not fulfilled |
| COC(=O)c1c2c(c(C)[n+]([O-])c1C)C(=O)C(NCc1ccc(F)c(Cl)c1)=CC2=O | A498 renal | not fulfilled |
| CCCCCCCC/C=C\CCCCCCCCOc1ccccc1CC(=O)NCC[N+](C)(C)C | A498 renal | not fulfilled |
| COc1cc(C2CC(c3ccc(Nc4ccnc5cc(Cl)ccc45)cc3)=NN2C=O)cc(OC)c1OC (stereo not given) | A498 renal | not fulfilled |
| O=c1cc(C2NNC(=S)N2)c2ccc3ccccc3c2o1 (stereo not given) | A498 renal | not fulfilled |
| CC(=O)[C@@H]1CC[C@]2(COS(=O)(=O)c3ccc(C)cc3)CC[C@]3(C)[C@H](CC[C@@H]4[C@@]5(C)CCCNC(C)(C)[C@@H]5CC[C@]43C)[C@@H]12 | A498 renal | not fulfilled |
| C=C1C(=O)O[C@H]2[C@H]1CC/C(COC(=O)C(=O)c1c[nH]c3ccccc13)=C\CC[C@@]1(C)O[C@@H]21 | A498 renal | fulfilled |
| Cc1nn(-c2ccccc2)c(Oc2ccc(Cl)cc2)c1/C=N\N=c1/sc2ccccc2n1C | A498 renal | not fulfilled |
| O=C(/C=C/c1cccc(O)c1)c1cccc(-n2cc(-c3ccc4ccccc4c3)[nH]c2=O)c1 | A498 renal | not fulfilled |
| CCN(CC)CCN1CC(O)=C(c2nc(-c3ccc(Cl)cc3)cs2)C1=N | A498 renal | fulfilled |
| Cc1cc(N2CCCC2)nc(NCc2cc(Nc3ccnc4cc(Cl)ccc34)ccc2F)n1 | A498 renal | fulfilled |
